Property: logP
Just the number, please, no unit after it.

-- ask Return reported logP. Input compound: COC(=O)C1(S(=O)(=O)c2ccc(Cl)cc2)CC1
-- reply 2.03

-- ask Using known records, supply logP for CCOC(=O)C1(S(=O)(=O)c2ccc(C)cc2)CC1
-- reply 2.23

-- ask Fill in logP for record CC(C)OC(=O)C1(S(=O)(=O)c2ccc(Cl)cc2)CC1
-- reply 2.64

-- ask Note down logP recorded for COC(=O)C1(S(=O)(=O)c2ccc(Br)cc2)CCC1
-- reply 2.45

-- ask Please give the documented logP of CC(C)OC(=O)C1(S(=O)(=O)c2ccc([N+](=O)[O-])cc2)CCCCC1
-- reply 2.84

-- ask Find the measured logP of COC(=O)C1(S(=O)(=O)c2ccc(C)cc2)CC1 and report it.
-- reply 1.77

-- ask Give me measured logP, please, for this compound: Cc1ccc(S(=O)(=O)C2(C(=O)OC(C)C)CCC2)cc1
-- reply 2.78

-- ask Recall and state the measured logP for CC(C)(C)OC(=O)C1(S(=O)(=O)c2ccc(Cl)cc2)CC1 .
-- reply 2.68

###

// reported logP per item
Just the number, please, no unit after it.

The cases that follow already have their logP on record.
{"Input smiles": "CC(C)OC(=O)C1(S(=O)(=O)c2ccc([N+](=O)[O-])cc2)CCCCCC1", "logP": 3.41}
{"Input smiles": "COC(=O)C1(S(=O)(=O)c2ccccc2)CCCC1", "logP": 1.98}
{"Input smiles": "Cc1ccc(S(=O)(=O)C2(C(=O)OC(C)C)CC2)cc1", "logP": 2.52}

-- ask Please give the documented logP of CC(C)OC(=O)C1(S(=O)(=O)c2ccc([N+](=O)[O-])cc2)CCC1
-- reply 2.36

-- ask Return logP for the following compound: COC(=O)C1(S(=O)(=O)c2ccccc2)CCC1
-- reply 1.63

-- ask Provide only the value of recorded logP for COC(=O)C1(S(=O)(=O)c2ccc([N+](=O)[O-])cc2)CC1
-- reply 1.33

-- ask Please supply the value of reported logP for the item COC(=O)C1(S(=O)(=O)c2ccccc2)CC1
-- reply 1.43

-- ask Please indicate logP recorded for COC(=O)C1(S(=O)(=O)c2ccccc2)CCCCC1
-- reply 2.3

-- ask Consider the compound CC(C)OC(=O)C1(S(=O)(=O)c2ccc([N+](=O)[O-])cc2)CC1 and give its recorded logP.
-- reply 2.05

-- ask Return the recorded logP value; entry: COC(=O)C1(S(=O)(=O)c2ccc(Br)cc2)CC1
-- reply 2.32

-- ask Identify the reported logP for the following entry. CC(C)OC(=O)C1(S(=O)(=O)c2ccc(Cl)cc2)CCCC1
-- reply 3.16

-- ask Give logP for the following compound: CCOC(=O)C1(S(=O)(=O)c2ccc(C)cc2)CCC1
-- reply 2.31

###

Each entry below carries its reported logP.

-- ask Determine from records and report logP for COC(=O)C1(S(=O)(=O)c2ccc(Br)cc2)CCCC1
-- reply 2.73

-- ask For the molecule COC(=O)C1(S(=O)(=O)c2ccc(Br)cc2)CCCCC1 , give its measured logP value.
-- reply 2.94

-- ask Quickly give me recorded logP for COC(=O)C1(S(=O)(=O)c2ccc(Cl)cc2)CCC1
-- reply 2.28

Reference for the values: the OPERA property sets (Mansouri et al. 2018)
